Entries annotated with measured pEC50
Molecular target: S1P1 (membranes prepared from S1P1/CHO cells) (Homo sapiens (Human), UniProt P21453)
Sequence (P21453 whole entry): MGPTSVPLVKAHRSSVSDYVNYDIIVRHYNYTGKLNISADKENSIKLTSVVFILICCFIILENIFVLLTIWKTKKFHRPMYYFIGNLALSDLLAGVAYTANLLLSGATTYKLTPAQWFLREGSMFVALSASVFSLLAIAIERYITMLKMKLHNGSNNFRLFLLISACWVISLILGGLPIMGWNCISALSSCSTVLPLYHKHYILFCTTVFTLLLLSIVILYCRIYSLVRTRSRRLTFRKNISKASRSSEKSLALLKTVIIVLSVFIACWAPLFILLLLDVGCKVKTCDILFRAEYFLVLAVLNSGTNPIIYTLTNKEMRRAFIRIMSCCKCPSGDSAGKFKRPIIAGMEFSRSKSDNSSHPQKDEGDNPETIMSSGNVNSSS
Test: Receptor [35S] GTPγS binding assay (S1P1 GTPγS)
Assay type: biochemical
Settings: phosphate examples; read-out: S1P1 GTPγS
pEC50: −log10 of the molar value.
property measured: pEC50

1. C=CCOCCC[C@@H]1CCc2cc(C3CCC(N)(COP(=O)(O)O)C3)ccc2C1 (single isomer, unassigned) : 6.00 to 7.00
2. C=CCCOC[C@@H]1CCc2cc([C@H]3CC[C@](N)(COP(=O)(O)O)C3)ccc2C1 : > 8.00
3. N[C@@]1(COP(=O)(O)O)CC[C@@H](c2ccc3c(c2)CC[C@H](OCCOCc2cccs2)C3)C1 (single isomer, unassigned) : 7.00 to 8.00
4. Cc1cc(COC[C@@H]2CCc3cc([C@H]4CC[C@](N)(COP(=O)(O)O)C4)ccc3C2)sc1C : 7.00 to 8.00
5. CC(C)CO/N=C1/CCc2cc([C@H]3CC[C@](N)(COP(=O)(O)O)C3)ccc2C1 : 6.00 to 7.00
6. CC(C)=CCCOC[C@@H]1CCc2cc([C@H]3CC[C@](N)(COP(=O)(O)O)C3)ccc2C1 : > 8.00
7. C=CCCOCCO[C@H]1CCc2cc([C@@H]3CC[C@@](N)(COP(=O)(O)O)C3)ccc2C1 : > 8.00
8. CC/C=C\COC[C@@H]1CCc2cc([C@H]3CC[C@](N)(COP(=O)(O)O)C3)ccc2C1 : > 8.00
9. CC(C)COCC[C@@H]1CCc2cc([C@H]3CC[C@](N)(COP(=O)(O)O)C3)ccc2C1 : > 8.00
10. CCOc1ccc(C[C@H]2CCc3cc([C@H]4CC[C@](N)(COP(=O)(O)O)C4)ccc3C2)cc1 : 7.00 to 8.00
11. CC/C=C/CC[C@@H]1CCc2cc([C@H]3CC[C@](N)(COP(=O)(O)O)C3)ccc2C1 : 6.00 to 7.00
12. CCCCC[C@@H]1CCc2cc([C@@H]3CC[C@@](N)(COP(=O)(O)O)C3)ccc2C1 : > 8.00
13. CN(C)Cc1cccc(OC[C@@H]2CCc3cc([C@H]4CC[C@](N)(COP(=O)(O)O)C4)ccc3C2)c1 : 6.00 to 7.00
14. C=CCOCCO[C@@H]1CCc2cc(C3CCC(N)(COP(=O)(O)O)C3)ccc2C1 (single isomer, unassigned) : 6.00 to 7.00
15. N[C@]1(COP(=O)(O)O)CC[C@H](c2ccc3c(c2)CC[C@H](CSCCc2ccccc2)C3)C1 : > 8.00

###

Entries annotated with measured EC50
Molecular target: hS1P1/CHO cells (Homo sapiens (Human))
Sequence (P21453 whole entry): as the sequence (P21453 whole entry) above
Test: hS1P1 ERK phosphorylation (S1P1 pERK)
Conditions: phosphate examples
property measured: EC50

1) CCCCCO[C@@H]1CCc2cc([C@@H]3CC[C@](N)(COP(=O)(O)O)C3)ccc2C1 : < 10 nM
2) COCC[C@@H]1CCc2cc([C@H]3CC[C@](N)(COP(=O)(O)O)C3)ccc2C1 : < 10 nM
3) N[C@]1(COP(=O)(O)O)CC[C@@H](c2ccc3c(c2)CC[C@H](CSc2ccccc2)C3)C1 : 10 to 100 nM
4) CCCCCOC[C@H]1CCc2cc([C@H]3CC[C@](N)(COP(=O)(O)O)C3)ccc2C1 : < 10 nM
5) CC(C)Oc1cccc(C[C@@H]2CCc3cc([C@H]4CC[C@](N)(COP(=O)(O)O)C4)ccc3C2)c1 : < 10 nM
6) COc1ccc(F)c(OC[C@@H]2CCc3cc([C@H]4CC[C@](N)(COP(=O)(O)O)C4)ccc3C2)c1 [compound 484] : 10 to 100 nM
7) N[C@@]1(COP(=O)(O)O)CC[C@@H](c2ccc3c(c2)CC[C@@H](CCc2ccc4ccccc4n2)C3)C1 : < 10 nM
8) CCCCN(C)C(=O)OC1CCc2cc([C@H]3CC[C@](N)(COP(=O)(O)O)C3)ccc2C1 (stereo partly drawn) : < 10 nM
9) CCCCOCCO[C@@H]1CCc2cc([C@@H]3CC[C@@](N)(COP(=O)(O)O)C3)ccc2C1 : < 10 nM
10) CC(C)OCCC[C@H]1CCc2cc([C@@H]3CC[C@@](N)(COP(=O)(O)O)C3)ccc2C1 : < 10 nM
11) Cc1cccc(OC[C@@H]2CCc3cc([C@H]4CC[C@](N)(COP(=O)(O)O)C4)ccc3C2)c1 : < 10 nM
12) CCCCCCN1CCc2cc([C@@H]3CC[C@](N)(COP(=O)(O)O)C3)ccc2C1=O : < 10 nM
13) CN(C)Cc1cccc(OC[C@@H]2CCc3cc([C@H]4CC[C@](N)(COP(=O)(O)O)C4)ccc3C2)c1 : 10 to 100 nM
14) CC(C)CN(C)C(=O)c1cccc(OC[C@@H]2CCc3cc([C@H]4CC[C@](N)(COP(=O)(O)O)C4)ccc3C2)c1 : < 10 nM
15) COc1ccc(OC[C@@H]2CCc3cc([C@H]4CC[C@](N)(COP(=O)(O)O)C4)ccc3C2)c(F)c1F : 10 to 100 nM
16) CCCSC[C@H]1CCc2cc([C@H]3CC[C@](N)(COP(=O)(O)O)C3)ccc2C1 [compound 532] : < 10 nM
17) COc1ccc(SC[C@@H]2CCc3cc([C@H]4CC[C@](N)(COP(=O)(O)O)C4)ccc3C2)cc1OC : 10 to 100 nM
18) CCCCCC[C@@H]1COc2cc([C@@H]3CC[C@](N)(COP(=O)(O)O)C3)ccc2C1 : 10 to 100 nM
19) CCCC=CCOC[C@@H]1CCc2cc([C@H]3CC[C@](N)(COP(=O)(O)O)C3)ccc2C1 : < 10 nM
20) CCCSC[C@@H]1CCc2cc([C@H]3CC[C@](N)(COP(=O)(O)O)C3)ccc2C1 : < 10 nM
21) COCCC[C@H]1CCc2cc([C@@H]3CC[C@@](N)(COP(=O)(O)O)C3)ccc2C1 : < 10 nM
22) C=CCCCOC[C@@H]1CCc2cc([C@H]3CC[C@](N)(COP(=O)(O)O)C3)ccc2C1 : < 10 nM
23) CC(C)OCCC[C@@H]1CCc2cc([C@@H]3CC[C@@](N)(COP(=O)(O)O)C3)ccc2C1 : < 10 nM
24) CCCSC[C@H]1CCc2cc([C@H]3CC[C@](N)(COP(=O)(O)O)C3)ccc2C1 [compound 502] : < 10 nM
25) COCCC/C=C/[C@@H]1CCc2cc([C@H]3CC[C@](N)(COP(=O)(O)O)C3)ccc2C1 : < 10 nM
26) CCCCO/N=C(\C)[C@@H]1CCc2cc([C@H]3CC[C@](N)(COP(=O)(O)O)C3)ccc2C1 : 10 to 100 nM
27) CC(C)=CCCC[C@@H]1CCc2cc([C@H]3CC[C@](N)(COP(=O)(O)O)C3)ccc2C1 : < 10 nM
28) CC(C)(C)CCOC[C@@H]1CCc2cc([C@H]3CC[C@](N)(COP(=O)(O)O)C3)ccc2C1 : 10 to 100 nM
29) CCCCOC[C@@H]1COc2cc([C@@H]3CC[C@](N)(COP(=O)(O)O)C3)ccc2O1 : 10 to 100 nM
30) CCCCO[C@H]1CCc2cc([C@H]3CC[C@](N)(COP(=O)(O)O)C3)ccc2C1 : < 10 nM

###

Target: S1P3 (membranes prepared from EDG3-Gal5-bla HEK293T cells) (Homo sapiens (Human), UniProt Q99500)
Sequence (Q99500 whole entry): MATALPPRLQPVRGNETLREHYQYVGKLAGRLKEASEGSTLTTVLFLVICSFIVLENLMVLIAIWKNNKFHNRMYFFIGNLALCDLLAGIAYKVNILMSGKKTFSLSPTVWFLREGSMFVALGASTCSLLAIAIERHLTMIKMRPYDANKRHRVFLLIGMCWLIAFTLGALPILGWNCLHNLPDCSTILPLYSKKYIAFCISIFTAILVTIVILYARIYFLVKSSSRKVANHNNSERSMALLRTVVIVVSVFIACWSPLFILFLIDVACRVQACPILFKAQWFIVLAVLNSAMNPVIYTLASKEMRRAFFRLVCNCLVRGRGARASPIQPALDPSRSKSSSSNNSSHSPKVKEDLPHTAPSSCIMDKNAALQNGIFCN
Assay: Receptor [35S] GTPγS binding assay (S1P3 GTPγS)
Type: biochemical
Conditions: phosphate examples; read-out: S1P3 GTPγS
pEC50: −log10 of the molar value.
Entries annotated with measured pEC50
property measured: pEC50

1) CCCCCCC1Cc2ccc([C@H]3CC[C@](N)(COP(=O)(O)O)C3)cc2CO1 (stereo partly drawn) [compound 421] : < 6.20
2) C#CCCOCCO[C@H]1CCc2cc([C@@H]3CC[C@@](N)(COP(=O)(O)O)C3)ccc2C1 [compound 586] : < 6.20
3) N[C@@]1(COP(=O)(O)O)CC[C@@H](c2ccc3c(c2)CC[C@@H](CCc2ccc4ccccc4n2)C3)C1 [compound 605] : < 6.20
4) CCCCCC[C@H]1COc2cc([C@H]3CC[C@](N)(COP(=O)(O)O)C3)ccc2C1 [compound 424] : < 6.20
5) C/C=C\CCCC[C@@H]1CCc2cc([C@H]3CC[C@](N)(COP(=O)(O)O)C3)ccc2C1 [compound 661] : < 6.20
6) Cc1ccccc1OC[C@H]1CCc2cc([C@H]3CC[C@](N)(COP(=O)(O)O)C3)ccc2C1 [compound 468] : < 6.20
7) CCc1ccc(COC[C@@H]2CCc3cc([C@H]4CC[C@](N)(COP(=O)(O)O)C4)ccc3C2)s1 [compound 489] : < 6.20
8) COc1ccc(COC[C@@H]2CCc3cc([C@H]4CC[C@](N)(COP(=O)(O)O)C4)ccc3C2)cc1 [compound 482] : < 6.20
9) COCc1cccc(OC[C@@H]2CCc3cc([C@H]4CC[C@](N)(COP(=O)(O)O)C4)ccc3C2)c1 [compound 480] : < 6.20
10) CC(C)CCSC[C@H]1CCc2cc([C@H]3CC[C@](N)(COP(=O)(O)O)C3)ccc2C1 [compound 511] : < 6.20
11) CCCCCSC[C@H]1CCc2cc([C@H]3CC[C@](N)(COP(=O)(O)O)C3)ccc2C1 [compound 512] : < 6.20
12) N[C@]1(COP(=O)(O)O)CC[C@@H](c2ccc3c(c2)CC[C@@H](CSc2ccccc2)C3)C1 [compound 508] : < 6.20
13) CC(C)CCOCCO[C@H]1CCc2cc([C@H]3CC[C@](N)(COP(=O)(O)O)C3)ccc2C1 [compound 587] : < 6.20
14) CCCC/C=C/[C@@H]1CCc2cc([C@H]3CC[C@](N)(COP(=O)(O)O)C3)ccc2C1 [compound 636] : < 6.20
15) CC/C=C\COC[C@@H]1CCc2cc([C@H]3CC[C@](N)(COP(=O)(O)O)C3)ccc2C1 [compound 455] : < 6.20

From: patent US9522888B2
